System: HCV 1b genotype
testName: HCV replicon assay (HCV-neo replicon cells, wild-type)
Assay type: cell-based, Hepatitis C virus
setupConditions: Hepatitis C virus, HCV 1b genotype replicon; class symbol; read-out: EC50 Range against HCV 1b

# compound, EC50
data = [
    ("O=C(Nc1ccc(-c2cc(-c3ccc(NC(=O)[C@@H]4CCCN4C(=O)c4nc(Cl)cc5ccccc45)cc3)[nH]n2)cc1)[C@@H]1CCCN1C(=O)c1nc(Cl)cc2ccccc12", "4.57 to 99 nM"),
    ("COc1cccc2c(C(=O)N3CCC[C@H]3C(=O)Nc3ccc(-c4cc(-c5ccc(NC(=O)[C@@H]6CCCN6C(=O)c6nc(Cl)cc7c(OC)cccc67)cc5)[nH]n4)cc3)nc(Cl)cc12", "4.57 to 99 nM"),
    ("O=C(Nc1ccc(-c2nc[nH]c2-c2ccc(NC(=O)[C@@H]3CCCN3C(=O)[C@@H](O)c3ccccc3)cc2)cc1)[C@@H]1CCCN1C(=O)[C@@H](O)c1ccccc1", "100 to 999 nM"),
    ("O=C(Nc1ccc(-c2nc[nH]c2-c2ccc(NC(=O)[C@@H]3CCCN3C(=O)Cc3ccccc3)cc2)cc1)[C@@H]1CCCN1C(=O)Cc1ccccc1", "4.57 to 99 nM"),
    ("COC(C(=O)N[C@@H](C)C(=O)Nc1ccc(-c2nnc(-c3ccc(NC(=O)[C@H](C)NC(=O)C(OC)c4ccccc4)cc3)o2)cc1)c1ccccc1 (stereo partly drawn)", "100 to 999 nM"),
    ("O=C(Nc1ccc(-c2nnc(-c3ccc(NC(=O)[C@@H]4CCCN4C(=O)Cc4ccccc4)cc3)o2)cc1)[C@@H]1CCCN1C(=O)Cc1ccccc1", "100 to 999 nM"),
]
